Entry source: ChEMBL document CHEMBL1139792

Target: Albumin (Homo sapiens, UniProt P02768)
Sequence (P02768 whole entry): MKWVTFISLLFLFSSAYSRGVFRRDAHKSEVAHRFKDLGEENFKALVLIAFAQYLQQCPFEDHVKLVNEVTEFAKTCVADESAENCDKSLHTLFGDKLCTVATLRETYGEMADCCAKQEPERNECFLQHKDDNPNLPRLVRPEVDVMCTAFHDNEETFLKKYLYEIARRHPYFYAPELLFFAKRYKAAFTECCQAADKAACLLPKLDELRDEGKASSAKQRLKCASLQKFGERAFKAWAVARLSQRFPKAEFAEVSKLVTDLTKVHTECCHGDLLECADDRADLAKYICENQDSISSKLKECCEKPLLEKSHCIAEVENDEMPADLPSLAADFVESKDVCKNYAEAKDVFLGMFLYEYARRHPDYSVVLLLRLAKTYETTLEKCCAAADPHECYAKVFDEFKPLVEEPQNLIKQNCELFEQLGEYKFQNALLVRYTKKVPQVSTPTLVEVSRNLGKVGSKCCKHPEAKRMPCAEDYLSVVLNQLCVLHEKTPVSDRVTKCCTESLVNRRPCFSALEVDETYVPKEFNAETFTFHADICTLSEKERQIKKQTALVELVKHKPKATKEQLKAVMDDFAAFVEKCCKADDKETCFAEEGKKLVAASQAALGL
Experiment: Binding to high affinity site of human serum albumin
Assay type: ADME
RESULT_TYPE: pKd
Keep in mind that pKd stands for -log10 of concentration in molar terms.

What value of pKd has been reported for the following compound? `N#Cc1ccc(NC(=O)c2ccc(S(=O)(=O)N3CCOCC3)cc2)c(C(=O)O)c1`
4.85

###

Molecular target: Albumin (Homo sapiens)
Test: Displacement of fluorescent dansyl sarcosine from human serum albumin site II on subdomain IIIA
RESULT_TYPE: Kd (µM)
Supply the numeric figure in µM, leaving out any unit text.

Example compounds with recorded Kd:
[
  {
    "MOL_SMILES": "O=C(Nc1ccc(Br)cc1C(=O)O)c1cccc(S(=O)(=O)N2CCOCC2)c1",
    "Kd / µM": 4.8
  },
  {
    "MOL_SMILES": "O=C(Nc1ccc(Cl)cc1C(=O)O)c1cccc(S(=O)(=O)N2CCOCC2)c1",
    "Kd / µM": 6.5
  },
  {
    "MOL_SMILES": "COc1ccc(NC(=O)c2cccc(S(=O)(=O)N3CCOCC3)c2)c(C(=O)O)c1",
    "Kd / µM": 8.1
  },
  {
    "MOL_SMILES": "Cc1ccc(NC(=O)c2cccc(S(=O)(=O)N3CCOCC3)c2)c(C(=O)O)c1",
    "Kd / µM": 7.5
  },
  {
    "MOL_SMILES": "O=C(Nc1ccc(F)cc1C(=O)O)c1cccc(S(=O)(=O)N2CCOCC2)c1",
    "Kd / µM": 6.6
  },
  {
    "MOL_SMILES": "O=C(Nc1ccccc1C(=O)O)c1cccc(S(=O)(=O)N2CCOCC2)c1",
    "Kd / µM": 6
  },
  {
    "MOL_SMILES": "O=C(Nc1ccc([N+](=O)[O-])cc1C(=O)O)c1cccc(S(=O)(=O)N2CCOCC2)c1",
    "Kd / µM": 4.4
  }
]

Now examine the next entry.
Would you kindly share the measured Kd for `N#Cc1ccc(NC(=O)c2ccc(S(=O)(=O)N3CCOCC3)cc2)c(C(=O)O)c1` ?
5.3

###

Each item that follows carries a reported pKa.
Test: Acid dissociation constant, pKa by pressure-assisted capillary electrophoresis method
Assay type: physicochemical

[
  {
    "MOL_SMILES": "N#Cc1ccc(NC(=O)c2ccc(S(=O)(=O)N3CCOCC3)cc2)c(C(=O)O)c1",
    "RESULT": 2.56
  },
  {
    "MOL_SMILES": "O=C(Nc1ccc(F)cc1C(=O)O)c1cccc(S(=O)(=O)N2CCOCC2)c1",
    "RESULT": 2.92
  },
  {
    "MOL_SMILES": "O=C(Nc1ccc([N+](=O)[O-])cc1C(=O)O)c1cccc(S(=O)(=O)N2CCOCC2)c1",
    "RESULT": 3.44
  }
]

Quick one: pKa of `O=C(Nc1ccccc1C(=O)O)c1cccc(S(=O)(=O)N2CCOCC2)c1` ?
3.18

Same question, `O=C(Nc1ccc(Cl)cc1C(=O)O)c1cccc(S(=O)(=O)N2CCOCC2)c1` this time
2.81

Do the same for `Cc1ccc(NC(=O)c2cccc(S(=O)(=O)N3CCOCC3)c2)c(C(=O)O)c1` please
3.36

Also, `COc1ccc(NC(=O)c2cccc(S(=O)(=O)N3CCOCC3)c2)c(C(=O)O)c1` please.
3.12

Next compound up: `O=C(Nc1ccc(Br)cc1C(=O)O)c1cccc(S(=O)(=O)N2CCOCC2)c1`
2.79
